protocol details: Inhibition of Staphylococcus aureus sortase A using Abz-LPETGK(Dnp)-NH2 fluorescent peptide as a substrate assessed as substrate cleavage measured over 60 mins by FRET assay
attribute measured: IC50
Put down the number, then write its unit next to it.

Here's what some known entries look like.
COc1cc(/C=C/C(=O)CC(=O)/C=C/c2ccc(O)c(OC)c2)ccc1O [CURCUMIN] ... 42.2 µg/mL
O=C(/C=C/c1ccccc1)c1ccccc1 [CHALCONE] ... 25.2 µg/mL
COc1ccc2cc3[n+](cc2c1OC)CCc1cc2c(cc1-3)OCO2 [BERBERINE] ... 6.9 µg/mL

### Prompt Which IC50 is reported for this compound? O=c1c(O)c(-c2ccc(O)c(O)c2)oc2cc(O)cc(O)c12 [QUERCETIN]
### Response 35.1 µg/mL

----------
protocol details: Ratio of MIC for antimicrobial activity against Staphylococcus aureus ATCC 25923 to IC50 for inhibition of Staphylococcus aureus sortase A using Abz-LPETGK(Dnp)-NH2 fluorescent peptide as substrate
Format: toxicity
attribute measured: Ratio

O=c1c(O)c(-c2ccc(O)c(O)c2)oc2cc(O)cc(O)c12 [QUERCETIN] ... 6
COc1cc(/C=C/C(=O)CC(=O)/C=C/c2ccc(O)c(OC)c2)ccc1O [CURCUMIN] ... 7.1
O=C(/C=C/c1ccccc1)c1ccccc1 [CHALCONE] ... 5

### Prompt Which Ratio is reported for this compound? COc1ccc2cc3[n+](cc2c1OC)CCc1cc2c(cc1-3)OCO2 [BERBERINE]
### Response 18.1

----------
Exercise: for every item that follows, state its recorded MIC.
Test system: Staphylococcus aureus
protocol details: Antimicrobial activity against Staphylococcus aureus ATCC 25923 assessed as bacterial growth inhibition measured after 24 hrs by resazurin dye based broth microdilution method
Format: functional

COc1ccc2cc3[n+](cc2c1OC)CCc1cc2c(cc1-3)OCO2 ... 125 µg/mL
COc1cc(/C=C/C(=O)CC(=O)/C=C/c2ccc(O)c(OC)c2)ccc1O ... 250 µg/mL
O=C(/C=C/c1ccccc1)c1ccccc1 ... 125 µg/mL

### Prompt Which MIC is reported for this molecule? O=c1c(O)c(-c2ccc(O)c(O)c2)oc2cc(O)cc(O)c12
### Response 250 µg/mL
